target: BACE-1 (Homo sapiens, UniProt P56817); assay: LanthaScreen BACE1 biochemical assay (TR-FRET)
Sequence (P56817 46-501): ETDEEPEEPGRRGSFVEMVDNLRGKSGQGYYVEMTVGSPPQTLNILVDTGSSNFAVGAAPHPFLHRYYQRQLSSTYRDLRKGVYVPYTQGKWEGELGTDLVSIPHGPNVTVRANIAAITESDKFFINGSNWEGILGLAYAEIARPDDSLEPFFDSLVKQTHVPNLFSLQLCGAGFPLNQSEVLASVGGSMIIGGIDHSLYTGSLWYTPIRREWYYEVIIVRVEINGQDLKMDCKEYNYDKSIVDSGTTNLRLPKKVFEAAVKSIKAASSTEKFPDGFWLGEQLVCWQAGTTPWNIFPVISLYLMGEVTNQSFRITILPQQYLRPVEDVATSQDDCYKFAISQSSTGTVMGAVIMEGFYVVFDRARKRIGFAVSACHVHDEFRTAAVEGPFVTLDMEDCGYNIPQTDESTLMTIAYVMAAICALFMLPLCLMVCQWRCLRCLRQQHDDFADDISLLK
pIC50: −log10 of the molar value.
endpoint_name: pIC50

NC1=NC2(CCCc3sc(-c4cccc(-c5ccccc5)c4)cc32)CCS1 (stereo not drawn) | 5.30 to 6.00
CN1C(=O)C2(CCCc3sc(-c4cccc(C(F)(F)F)c4)cc32)N=C1N (stereo not drawn) | > 6.00
COc1ccc(-c2cc3c(s2)CCCC32CCSC(N)=N2)cc1C#N (stereo not drawn) | 4.19 to 5.30
N#Cc1cc(-c2cc3c(s2)CCCC32CCSC(N)=N2)ccc1F (stereo not drawn) | 5.30 to 6.00
CN1OC2(CCCc3sc(-c4cccc(C(F)(F)F)c4)cc32)N=C1N (stereo not drawn) | 5.30 to 6.00

Switching to the query record.
Q: Tell me the measured pIC50 of NC1=NC2(CCCc3cc(-c4cccc(-c5ccccc5)c4)sc32)CCS1 (stereo not drawn) , please.
Ans: 5.30 to 6.00

This collection of values is drawn from patent US9233982B2.
